B1: glmS ribozyme (parent)
chain: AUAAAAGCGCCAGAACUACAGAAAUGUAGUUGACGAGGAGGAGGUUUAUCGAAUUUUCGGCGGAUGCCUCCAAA

- Variants of: B1
- Assay Explanation: self-cleavage kobs at 160 uM GlcN6P; higher = faster cleavage; RNA array
- Cond: with glucosamine-6-phosphate
This sample holds only a part of the variants without activity.
Property: self-cleavage kobs at 160 uM GlcN6P

Worked examples follow.
AUAAAAGCGCCAGAACUACAGAAAUGUAGUUGACGAGGAGGAGGUUUAUCGAAUUUUCUGCUGAUGGCUCCAAA [G59U G62U C67G]; < 1e-05 s⁻¹
AUAAAGGCGCCAGAUCUACAGAAAUGUAGUUGACGAGGAGGAGGUUUAUCGUAUUUUCGGCGGAUGCCUCCAAA [A6G A15U A52U]; < 1e-05 s⁻¹

QUERY: Data request, read-out self-cleavage kobs at 160 uM GlcN6P, for AUAAAAGCGCCAGAACUACAGAAAUGUAGUUGACGAGGAGGCGCUUUAUCGAAUUUUCGGCGGAUGCCUCCAAA [A42C G44C]
RESULT: < 1e-05 s⁻¹

QUERY: Find the recorded self-cleavage kobs at 160 uM GlcN6P belonging to AUAAAAGCGCCAGAACUACAGAAAUGUAGUUGACGAGGAGUAGGUUUAUCGAAUUUUCGGCGCAUGCCUCCAAA [G41U G63C] and report it.
RESULT: < 1e-05 s⁻¹

QUERY: Data request, read-out self-cleavage kobs at 160 uM GlcN6P, for AUAAAAGCGCCAGAACUACAGAAAUGUAGCUGACGAGGAGGAGGUUUAUCGAAUUUUCUGCGGAUGCCUCCAAA [U30C G59U]
RESULT: < 1e-05 s⁻¹

QUERY: Value lookup for self-cleavage kobs at 160 uM GlcN6P; key = AUAAAAGAUCCAGAACUACAGAAAUGUAGUUGACGAGGAGGAGGUUUAUCGAAUUUUCGGCGGAUGCCUCCAAA [C8A G9U]
RESULT: < 1e-05 s⁻¹

QUERY: self-cleavage kobs at 160 uM GlcN6P lookup needed for AUAAAAGCGCCAGAAAUACAGAAAUGUAGUUGACGAGGAGGAGGUUUAUCGACUUUUCGGCGGAUGCCUCCAAA [C16A A53C] , thanks.
RESULT: 3.05e-05 s⁻¹

QUERY: Requested read-out: self-cleavage kobs at 160 uM GlcN6P. Entry: AUAAAAGUGCCAGUACUACAGAAAUGUAGUUGACGAUGAGUAGGUUUAUCGAAUUUUCGGCGGAUGCCUCCAAA [C8U A14U G37U G41U]
RESULT: < 1e-05 s⁻¹

QUERY: // query self-cleavage kobs at 160 uM GlcN6P value for entry AUAAAAGCGCCAGAACUACAGAAAUGUAGGUGACGAGGAGGAGGUCUAUCGAAUUUUCGGCGGAUGCCUCCAAA [U30G U46C]
RESULT: 6.38e-05 s⁻¹

QUERY: Quick one: self-cleavage kobs at 160 uM GlcN6P for AUAAAAUAGCCAGAACUACAGAAAUGUAGUUGACGAGGAGGAGGUUUAUCGAAUUUUCGGCGGAUGCCUCCAAA [G7U C8A] ?
RESULT: < 1e-05 s⁻¹

QUERY: Would you kindly share the measured self-cleavage kobs at 160 uM GlcN6P for AUAAAAGCGCCAGAACUACAGAAAUGUAGUUGACGAGUAGGUGGUUUAUCGAAUUUUCGGCGGAUGCCUCCAAA [G38U A42U] ?
RESULT: < 1e-05 s⁻¹

QUERY: What value of self-cleavage kobs at 160 uM GlcN6P has been reported for the following variant? AUAAAAGCGCCAGAACUACAGAAAUGUAGUUGACGUGGAGGAGGUUUAGCGCAUUUUCGGCGGAUGCCUCCAAA [A36U U49G A52C]
RESULT: < 1e-05 s⁻¹

QUERY: Find the recorded self-cleavage kobs at 160 uM GlcN6P belonging to AUAAAAGCGACAGAACUACAGAAAUGUAGUCGACGAGGAGGAGGUUUAUCGAAUUUACGGCGGUUGCCUCCAAA [C10A U31C U57A A64U] and report it.
RESULT: < 1e-05 s⁻¹

QUERY: Need self-cleavage kobs at 160 uM GlcN6P of AUAAAAGCGCCAGAGAUACAGAAAUGUAGUUGACGAGGAGGAGGUUUAUCGAAUUUUCGGCGGAUGCCUUCAAA [A15G C16A C70U] , thanks.
RESULT: 6.78e-05 s⁻¹

QUERY: What value of self-cleavage kobs at 160 uM GlcN6P has been reported for the following variant? AUAAAAGCGCGAGAACUACAGAAAUGUAGUUGACGAGGUGGAGGUUUAUCGAAUUUUCGACGGAUGCCUCCAAA [C11G A39U G60A]
RESULT: < 1e-05 s⁻¹

QUERY: I am curious: what self-cleavage kobs at 160 uM GlcN6P value has been reported for AUAAAACCGCCAGAACUACAGAAAUGUAGAUGACGAGGAGGAGGUUUAUCGAAUUUUCGGCGGAUGCCUCCAAA [G7C U30A] ?
RESULT: < 1e-05 s⁻¹
